- Protocol Notes: BSK_BE3C_SRB: Viability Assessment in the BioMAP Diversity Plus: BE3C Assay (AID 2283028);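 also: measured 24 h after chemical dosing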
- Condition Label: primary human bronchial epithelial cells
Activity calls are given as the source filed them. The calls were made as follows: active = hit-call score of the fitted dose curve at least 0.9, where 1 is the maximum; inactive = score below 0.9.
Log the outcome using a class from YES = active, NO = inactive

Field: example entries. Status: answers known.
CCC(C)(c1ccc(O)cc1)c1ccc(O)cc1 ... NO
ClC(Cl)=C(c1ccc(Cl)cc1)c1ccc(Cl)cc1 ... NO
O=S(=O)(O)C(F)(F)C(F)(F)C(F)(F)C(F)(F)F ... NO
Cc1cccc([N+](=O)[O-])c1 ... NO
COS(=O)(=O)OC ... NO
O=C(N[C@H]1CN2CCC1CC2)c1cc2ccoc2cn1 ... NO
Cc1ccccc1CO[C@@H]1C[C@@]2(C(C)C)CC[C@]1(C)O2 ... NO
CC(C)(c1ccccc1)c1ccc(O)cc1 ... YES

Tell me the recorded outcome of this test for CCOP(=S)(OCC)SCSC(C)(C)C . NO

Tell me the recorded outcome of this test for Cc1cccc(C)c1N . NO

Tell me the recorded outcome of this test for CCC(C)c1cc([N+](=O)[O-])cc([N+](=O)[O-])c1O (centres undefined) . NO

Tell me the recorded outcome of this test for O=C(NC(=O)c1cc(F)c(F)cc1Cl)Nc1cc(F)ccc1N1CCC(C(=O)O)CC1 . NO
